Recorded values, source PubChem BioAssay (NCI).

Tested on: SK-MEL-28 melanoma
measurement_protocol: NCI tumour cell line growth inhibition, 48 h
Reported values of TGI for individual entries
property_measured: TGI

INSERT INTO measurements (molecule, property_measured, measured_result) VALUES
  ('CC1(C)OC2COC3([C@@H]4OC(C)(C)O[C@@H]4CO)OC(C)(C)OC3C2O1 (stereo partly specified)', 'TGI', '> 100 µM'),
  ('C/C(=N\Nc1nc2ccccc2s1)c1ccc2ccccc2n1', 'TGI', '> 100 µM'),
  ('COc1ccc2[nH]c(-c3ccc(O)cc3)cc(=O)c2c1', 'TGI', '> 100 µM'),
  ('CC(C)(C)c1ccc(OC2CCO2)cc1 (stereo unspecified)', 'TGI', '> 100 µM'),
  ('CCOP(=O)(OCC)OC1CC(n2cc(C)c(=O)n(C)c2=O)OC1CO[Si](C)(C)C(C)(C)C (stereo unspecified)', 'TGI', '> 100 µM'),
  ('OCc1ccc(N2CCOCC2)cc1Cl', 'TGI', '> 100 µM'),
  ('CN(C)c1cccc2c1C(=O)C=CC21c2ccc(N(C)C)c3c(N(C)C)ccc(c23)C(c2ccccc2)C1c1ccccc1 (stereo unspecified)', 'TGI', '37.5 µM'),
  ('CC(C)C1=C(O)C2=C(C(=O)C1=O)C1(C)CCCC(C)(C)C1C(O)C2OC=O (stereo unspecified)', 'TGI', '13.1 µM'),
  ('COc1cc(C(O)c2ccc3c(c2)OCO3)cc(OC)c1OC (stereo unspecified)', 'TGI', '> 100 µM'),
  ('O=C(CC(=O)Nc1ccccc1)NNC(c1cc(N=Nc2ccc(Br)cc2)ccc1O)P(O)O (stereo unspecified)', 'TGI', '> 10 µM'),
  ('COC(=O)N1N=C(c2ccccc2)C1c1ccccc1 (stereo unspecified)', 'TGI', '> 100 µM');

* * *

This listing pairs compounds with measured TGI.
Test system: DU-145 prostate
measurement_protocol: NCI tumour cell line growth inhibition, 48 h
property_measured: TGI

INSERT INTO assay_data (compound, target_desc, measured_result) VALUES
  ('CON(C)C(=O)C1CCCO1 (centres undefined)', 'DU-145 prostate', '> 100 µM'),
  ('COc1cc2nc(-c3ccc(C(F)(F)F)cc3)cc(OCCCN3CCCC3)c2cc1OC', 'DU-145 prostate', '> 46.6 µM'),
  ('O=C1/C(=C/c2ccc([N+](=O)[O-])cc2)COc2ccc(O)cc21', 'DU-145 prostate', '> 100 µM'),
  ('CC(=Nc1ccc(S(N)(=O)=O)cc1)c1c(O)[nH]c2ccccc12', 'DU-145 prostate', '> 25 µM'),
  ('O=C(c1cccs1)C1NO[N+]([O-])=C1c1cccs1 (centres undefined)', 'DU-145 prostate', '10.7 µM'),
  ('CN(C)c1cccc2c1C(=O)C=CC21c2ccc(N(C)C)c3c(N(C)C)ccc(c23)C(c2ccccc2)C1c1ccccc1 (centres undefined)', 'DU-145 prostate', '> 100 µM'),
  ('CC1(C)CC(C#Cc2ccccc2)CC(C)(C)N1O', 'DU-145 prostate', '41.9 µM'),
  ('COc1ccc(N2C(=O)C3c4[nH]c5ccccc5c4C4CCCCCCCCCC4C3C2=O)cc1 (centres undefined)', 'DU-145 prostate', '> 10 µM'),
  ('COc1cc(C(O)c2ccc3c(c2)OCO3)cc(OC)c1OC (centres undefined)', 'DU-145 prostate', '> 100 µM'),
  ('C/C1=C\CC[C@@](C)(O)[C@@H]2C[C@H](CC/C(C)=C/CC1)C1(CC1)C(=O)O2', 'DU-145 prostate', '> 100 µM'),
  ('O=C(O)CN(CC(=O)O)C(C(=O)O)c1ccccc1 (centres undefined)', 'DU-145 prostate', '> 100 µM'),
  ('C[n+]1c(/C=C/c2ccc(O)c3ncccc23)[se]c2ccccc21', 'DU-145 prostate', '16.8 µM'),
  ('Cc1cc(O)c(-c2cc(O)c(C)cc2O)cc1O', 'DU-145 prostate', '28.5 µM'),
  ('COc1cc(/C=C2\CCC(C)/C(=C\c3cc(OC)c(OC)c(OC)c3)C2=O)cc(OC)c1OC (centres undefined)', 'DU-145 prostate', '> 100 µM'),
  ('CCCCCCCCCCCCCC[n+]1cccc(C(N)=O)c1', 'DU-145 prostate', '11.6 µM'),
  ('CC(C)C(N)C(=O)NC(CCC(=O)NCCCCC(N)C(=O)NCCCNc1ccc([N+](=O)[O-])c2[nH]c3ccccc3c(=O)c12)C(N)=O (centres undefined)', 'DU-145 prostate', '> 100 µM'),
  ('CCOC(=O)NC(Nc1c(F)c(F)c(F)c(F)c1F)(C(F)(F)F)C(F)(F)F', 'DU-145 prostate', '> 100 µM'),
  ('COc1ccc(-n2nc(C)c3c(Nc4ccc(NC(=O)Nc5ccc(Cl)c(C(F)(F)F)c5)cc4)ncnc32)cc1', 'DU-145 prostate', '> 100 µM'),
  ('COc1c(O)c(OC)c2oc(-c3ccc(O)cc3)c(OC)c(=O)c2c1O', 'DU-145 prostate', '> 100 µM');

* * *

System: HT29 colon
measurement_protocol: NCI tumour cell line growth inhibition, 48 h
Each entry below carries its reported TGI.
property_measured: TGI

INSERT INTO assay_data (compound, property_measured, measured_result) VALUES
  ('C/C(=C\CO)CC/C=C(\C)CNc1ccc([N+](=O)[O-])cc1', 'TGI', '> 100 µM'),
  ('CCN(CC)c1ccc(/C=C/C2=[N+](C)c3ccccc3C2(C)C)c(C)c1', 'TGI', '1.32 µM'),
  ('O=C(/C=C/c1cccc(O)c1)c1cccc(-n2cc(-c3ccc4ccccc4c3)[nH]c2=O)c1', 'TGI', '2.87 µM'),
  ('c1ccc(-c2nc(N3CCCNCC3)c3nc(-c4ccccc4)oc3n2)cc1', 'TGI', '3.72 µM'),
  ('c1ccc(C2CC(=NC3CCCCC3)Nc3ccccc3N2)cc1 (configuration not stated)', 'TGI', '> 100 µM'),
  ('CN(C)c1cccc2c1C(=O)C=CC21c2ccc(N(C)C)c3c(N(C)C)ccc(c23)C(c2ccccc2)C1c1ccccc1 (configuration not stated)', 'TGI', '44.9 µM'),
  ('COc1ccc(Oc2cnn(C(Br)(Br)C(C)=O)c(=O)c2Br)cc1', 'TGI', '48.4 µM'),
  ('Cc1ccc2oc(=O)c(-c3ccccc3)nc2c1', 'TGI', '> 100 µM'),
  ('O=C1/C(=C/c2cccc([N+](=O)[O-])c2)Sc2scc(-c3ccc([N+](=O)[O-])cc3)[n+]21', 'TGI', '38.8 µM'),
  ('Nc1cc(-c2ccc(Cl)cc2)nn1-c1nnc(/C=C/c2ccco2)c(=O)[nH]1', 'TGI', '> 100 µM'),
  ('C=CCN1C(=O)/C(=C/c2ccc(C)cc2)N=C1SC1OC(COC(C)=O)C(OC(C)=O)C(OC(C)=O)C1OC(C)=O (configuration not stated)', 'TGI', '> 100 µM'),
  ('COc1ccc(C2=C(N3CCc4ccccc43)C(=O)NC2=O)cc1', 'TGI', '> 25 µM'),
  ('O=C1c2cccc3cccc(c23)C(=O)N1O', 'TGI', '> 100 µM'),
  ('Nc1ccc(-c2nn3c(COc4ccc(Cl)cc4)nnc3s2)cc1', 'TGI', '> 100 µM'),
  ('O=[N+]([O-])c1cc(Cl)ccc1Sc1ccccc1', 'TGI', '> 100 µM'),
  ('O=S1(=O)c2cnccc2NC(=NCc2ccccc2)N1c1ccccc1', 'TGI', '> 100 µM'),
  ('CC1(C)CC(=O)C(CC2C(=O)c3ccccc3C2=O)C(=O)C1', 'TGI', '> 100 µM'),
  ('CCOC(=O)N1CCN(CCCCCOc2ccccc2C2CCCCC2)CC1', 'TGI', '12 µM'),
  ('COc1ccc(/C=N/n2c(C)nc3c(sc(=S)n3-c3ccccc3)c2=O)cc1', 'TGI', '> 100 µM'),
  ('O=c1c2ccccc2sc2ccccc12', 'TGI', '> 100 µM'),
  ('COc1cc(C2c3cc4c(cc3[C@@H](Nc3ccc5c(c3)OCO5)C3COC(=O)[C@H]23)OCO4)cc(OC)c1O (some centres not stated)', 'TGI', '6.07 µM'),
  ('COc1ccccc1NC(=O)/C(=C/c1ccccc1)C(C)=O', 'TGI', '> 100 µM'),
  ('CC(C)/C(Cl)=N/OC(=O)Nc1ccc(OC(F)(F)F)cc1', 'TGI', '35.9 µM'),
  ('CC(C)(C)c1ccc(OC2CCO2)cc1 (configuration not stated)', 'TGI', '50.9 µM'),
  ('Cc1ccc(NC(=O)/C(Cc2cc(=O)oc3cc(O)ccc23)=N\NC(=O)C[N+](C)(C)C)cc1C', 'TGI', '> 100 µM'),
  ('O=S1SC(=S)C2C=CC=CC21 (configuration not stated)', 'TGI', '> 100 µM'),
  ('O=C1C(C(O)(C(F)(F)F)C(F)(F)F)CCC1C(O)(C(F)(F)F)C(F)(F)F (configuration not stated)', 'TGI', '> 29.3 µM');
